hS1P1 B-arrestin2 pEC50 values, listed per item
# measured_on: UniProt:P21453
# Sequence (P21453 whole entry, looked up): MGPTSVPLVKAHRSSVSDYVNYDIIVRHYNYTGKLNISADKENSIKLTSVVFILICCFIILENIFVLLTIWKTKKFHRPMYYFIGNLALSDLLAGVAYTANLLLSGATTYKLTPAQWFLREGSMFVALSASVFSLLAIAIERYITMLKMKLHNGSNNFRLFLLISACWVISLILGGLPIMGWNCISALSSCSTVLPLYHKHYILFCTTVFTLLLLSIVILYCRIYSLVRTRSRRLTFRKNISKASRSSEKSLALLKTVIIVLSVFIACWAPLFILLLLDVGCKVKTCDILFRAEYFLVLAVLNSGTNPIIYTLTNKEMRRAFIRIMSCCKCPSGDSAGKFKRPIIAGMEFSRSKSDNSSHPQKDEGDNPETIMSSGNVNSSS
# Sequence (P32121 whole entry partner, looked up): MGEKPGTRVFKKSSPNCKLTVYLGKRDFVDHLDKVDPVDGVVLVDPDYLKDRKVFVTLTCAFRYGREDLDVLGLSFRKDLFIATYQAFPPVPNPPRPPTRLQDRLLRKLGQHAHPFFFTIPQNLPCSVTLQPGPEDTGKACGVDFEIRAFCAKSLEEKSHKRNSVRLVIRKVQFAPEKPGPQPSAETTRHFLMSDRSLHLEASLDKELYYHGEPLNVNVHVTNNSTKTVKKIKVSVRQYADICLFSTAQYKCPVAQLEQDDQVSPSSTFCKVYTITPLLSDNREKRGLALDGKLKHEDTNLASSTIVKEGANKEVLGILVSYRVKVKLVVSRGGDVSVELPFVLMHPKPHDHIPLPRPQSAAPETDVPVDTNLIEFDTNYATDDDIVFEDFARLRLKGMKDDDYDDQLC
# test_summary: β-Arrestin2 recruitment assay (PathHunter), S1P1 CHO-K1 cells
# Type: cell-based
# condition_details: β-arrestin2 recruitment, S1P1 CHO-K1 cells

Examples from the recorded data:
{"cpd_smiles": "CC(C)CCn1nnc2cc(-c3nc(-c4ccc(C(F)(F)F)c(F)c4)no3)ccc21", "readout_label": "hS1P1 B-arrestin2 pEC50", "result_value": "<5"}
{"cpd_smiles": "CC(C)Oc1ccc(-c2noc(-c3ccc4c(c3)nnn4C(C)C)n2)cc1C(F)(F)F", "readout_label": "hS1P1 B-arrestin2 pEC50", "result_value": ">5"}

Qu. Using known records, supply hS1P1 B-arrestin2 pEC50 for CC(C)(O)Cn1nnc2cc(-c3nc(-c4ccncc4C(F)(F)F)no3)ccc21
Ans. <5

Qu. Using known records, supply hS1P1 B-arrestin2 pEC50 for COc1cccnc1-c1nc(-c2ccc3c(c2)nnn3C(C)C)no1
Ans. >5

Qu. Using known records, supply hS1P1 B-arrestin2 pEC50 for COc1ccc(-c2nc(-c3ccc4c(c3)nnn4C(C)C)no2)c(C)c1
Ans. >5

Qu. Using known records, supply hS1P1 B-arrestin2 pEC50 for COc1ccc(-c2cnc(-c3ccc4c(c3)nnn4C(C)C)s2)cc1
Ans. >5

Qu. Using known records, supply hS1P1 B-arrestin2 pEC50 for Brc1ccccc1-c1nc(-c2ccc3[nH]nnc3c2)no1
Ans. <5

Qu. Using known records, supply hS1P1 B-arrestin2 pEC50 for Cc1ccccc1-c1noc(-c2ccc3c(c2)nnn3CC(C)C)n1
Ans. >5

Qu. Using known records, supply hS1P1 B-arrestin2 pEC50 for Cc1ncccc1-c1nc(-c2ccc3c(c2)nnn3C(C)C)no1
Ans. <5
